Molecular target: Syk kinase (Homo sapiens)
Construct: purchased
Experiment: Syk kinase inhibition, Caliper LabChip off-chip mobility-shift kinase assay
Assay type: biochemical
Conditions: read-out: Syk Enzyme IC50
pIC50: −log10 of the molar value.
MEASURE: pIC50

Completed entries (count: 3):
[[record]]
molecule = "CN(C)Cc1n[nH]c2cc(Nc3nc(-c4cncc(C(=O)N5CCOCC5)c4)cc4cc[nH]c(=O)c34)ccc12 [compound 205]"
measure = "pIC50"
test_result = 6.98

[[record]]
molecule = "Nc1ncc(-c2cc3cc[nH]c(=O)c3c(NC3CCC3)n2)cn1 [compound 453]"
measure = "pIC50"
test_result = 6.79

[[record]]
molecule = "COc1cncc(-c2cc3cc[nH]c(=O)c3c(Nc3ccc(C4CNC4)cc3)n2)n1 [compound 145]"
measure = "pIC50"
test_result = 8.22


(1) COc1cncc(-c2cc3cc[nH]c(=O)c3c(Nc3ccc(CCN4CC5CNCC5C4)cc3)n2)n1 (centres unmarked) [compound 433]
(2) Cc1ccnc(Nc2cc3ccn(C)c(=O)c3c(Nc3cc(C)ccn3)n2)c1 [compound 569]
(3) Cc1ccnc(Nc2cc3ccn(C)c(=O)c3c(NC[C@@H](C)O)n2)c1 [compound 511]
Write the entries in order, lowest recorded pIC50 first. Form entry: ranked labels (order as requested). 2, 3, 1
(2: 6.15, 3: 7.07, 1: 7.29)

(a) CCN1CCN(CCc2ccc(Nc3nc(Nc4cc(C(=O)O)ccn4)cc4cc[nH]c(=O)c34)cc2)CC1 [compound 586]
(b) COc1cncc(-c2cc3cc[nH]c(=O)c3c(Nc3ccc(CCN4CCC(OC)CC4)cc3)n2)n1 [compound 23]
I'm curious whether a or b has the smaller pIC50 number. Which is it? Answer by quoting the chosen item's label. a
(a: 6.65, b: 7.41)

The origin of these recorded values is patent US20110053897A1.
